test system: Galium (catchweed bedstraw, Galium aparine); assay: Test A postemergence; type: in vivo; settings: Galium, post-emergence, 240 h, 125 g ai/ha, postemergence, visual injury rating after approximately 10 d; read-out: Galium plant response rating (0 to 100 scale, 0 no effect, 100 complete control)
Lab note: compare pest or weed control at 125 g/ha with 50%, writing rule met if less and rule not met if equal or more.

Q: For COc1c(F)ccc([C@H]2CN(C)C(=O)[C@@H]2C(=O)Nc2ccccc2S(C)(=O)=O)c1Cl [Compound 897] , is the recorded pest or weed control at 125 g/ha below the cut-off of 50%?
Ans: rule met

Q: For CN1C[C@H](c2cccc(OC(F)(F)C(F)F)c2)[C@@H](C(=O)Nc2ccccc2S(C)(=O)=O)C1=O [Compound 864] , is the recorded pest or weed control at 125 g/ha below the cut-off of 50%?
Ans: rule met

Q: For O=C1NC[C@H](c2cccc(C(F)(F)F)c2)[C@H]1C(=O)Nc1cccc2c1OC(F)(F)O2 [Compound 827] , is the recorded pest or weed control at 125 g/ha below the cut-off of 50%?
Ans: rule met

Q: For Cc1c(F)ccc([C@H]2CN(C)C(=O)[C@@H]2C(=O)Nc2ccc(F)cc2F)c1F [Compound 835] , is the recorded pest or weed control at 125 g/ha below the cut-off of 50%?
Ans: rule met

Q: For COc1c(F)ccc([C@H]2CN(C)C(=O)[C@@H]2C(=O)Nc2ccc(F)c(F)c2F)c1Cl [Compound 895] , is the recorded pest or weed control at 125 g/ha below the cut-off of 50%?
Ans: rule not met

----------
tested on: sedge, umbrella (small-flower umbrella sedge, Cyperus difformis); assay: Test B flooded paddy test; format: in vivo; conditions: Cyperus difformis, 250 g ai/ha, Flood; 0 to 100 scale where 0 is no effect and 100 is complete control; read-out: Sedge, Umbrella plant response rating
outcomeMeasure: pest or weed control at 250 g/ha (%)
Use % as the unit, but write only the number.

Q: Need pest or weed control at 250 g/ha, item Cc1cc([C@H]2CN(C)C(=O)[C@@H]2C(=O)Nc2ccc(F)cc2F)ccc1Br
Ans: 0

Q: Need pest or weed control at 250 g/ha, item CN1C[C@H](c2cccc(C(F)(F)F)c2)[C@@H](C(=O)Nc2cnccc2C(F)(F)F)C1=O
Ans: 0

Q: Need pest or weed control at 250 g/ha, item Cc1cc([C@H]2CNC(=O)[C@@H]2C(=O)Nc2ccccc2Cl)ccc1C(F)(F)F
Ans: 0

----------
test system: ryegrass, Italian (Italian ryegrass, Lolium multiflorum); test: Test A preemergence; type: in vivo; settings: Lolium multiflorum, pre-emergence, 240 h, 125 g ai/ha, preemergence; visual injury rating, 0 to 100 scale where 0 is no effect and 100 is complete control; approximately 10 d; read-out: Ryegrass, Italian plant response rating
outcomeMeasure: pest or weed control at 125 g/ha (%)
Use % as the unit, but write only the number.

Q: Need pest or weed control at 125 g/ha, item O=C1NC[C@H](c2ccc(Cl)c(F)c2)[C@H]1C(=O)Nc1cccc(F)c1F
Ans: 0

Q: Need pest or weed control at 125 g/ha, item Cc1cc(F)cc([C@H]2CNC(=O)[C@@H]2C(=O)Nc2ccccc2S(C)(=O)=O)c1
Ans: 0

Q: Need pest or weed control at 125 g/ha, item Cc1ccc([C@H]2CN(C)C(=O)[C@@H]2C(=O)Nc2cccc(C#N)c2F)cc1
Ans: 60

Q: Need pest or weed control at 125 g/ha, item Cc1cc([C@H]2CN(C)C(=O)[C@@H]2C(=O)Nc2ccccc2F)no1
Ans: 0
